Source: patent US20090060916A1

Target Under Test: T1, human IL-13 (human, UniProt P35225 35-146, biotinylated on the Biacore chip)
T1 construct: also called hIL-13; recombinant human IL-13
T1 sequence (P35225 35-146 limits assumed): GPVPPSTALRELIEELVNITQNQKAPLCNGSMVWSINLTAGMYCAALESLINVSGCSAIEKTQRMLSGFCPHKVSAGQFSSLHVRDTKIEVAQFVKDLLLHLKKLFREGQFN
Experiment Notes: assay not named ('Potency IC50')
Attribute Measured: pIC50
Value format note: pIC50 is -log10 of concentration (mol/L); just state the number.

Take a look at these entries with their results.
{"columns": ["Binder", "pIC50"],
 "data": [
  ["DOM10-53-344 (other, VH dAb) VH: GVQLLESGGGLVQPGGSLRLSCAASGFIFAWYDMGWVRQAPGKGLEWVSSIDWHGEVTYYADSVKGRFTISRDNSKNTLYLQMNSLRAEDTAVYYCATAEDEPGYDYWGQGTLVTVSS", 10.00],
  ["DOM10-53-475 (other, VH dAb) VH: GVQLLESGGGLVQPGGSLRLSCAASGFTFAWYDMGWVRQAPGKGLEWVSSIDWHGKITYYADSVKGRFTISRDNSKNTLYLQMNSLRAEDTAVYYCATAEDEPGYDYWGQGTLVTVSS", 10.34]
]}

# ---- query binder ----
pIC50 in this record for DOM10-53-612 (other, VH dAb) VH: GVQLLESGGGLVQPGGSLRLSCAASGFAFAAYDMGWVRQAPGKGLEWVSSIDWKGMETYYADSVKGRFTISRDNSKNTLYLQMNSLRAEDTAVYYCATAEDEPGYDYWGQGTLVTVSS : 7.70
